target: Human immunodeficiency virus type 1 reverse transcriptase (Human immunodeficiency virus 1, UniProt Q72547, E138K); test: Inhibition of HIV-1 reverse transcriptase E138K mutant assessed as reduction in dTTP incorporation using poly(rA)/oligo(dT)16 as template/primer after 40 mins by PicoGreen dye based spectrofluorometric analysis
# condition met = IC50 below 60 µM (exclusive); condition not met = IC50 at/above 60 µM

### Prompt Please state whether IC50 is below 60 µM for Cc1ccc(CS(=O)(=O)n2c(=O)[nH]c3ccc(Cl)cc32)cc1
### Response condition not met

### Prompt Regarding Cc1cccc(CS(=O)(=O)n2c(=O)[nH]c3ccc(Cl)cc32)c1 , kindly confirm whether its IC50 is beneath 60 µM.
### Response condition met

### Prompt Consider Cc1cccc(CCS(=O)(=O)n2c(=O)[nH]c3ccc(Cl)cc32)c1 . Does its IC50 lie strictly below 60 µM?
### Response condition not met

### Prompt # TODO verify IC50 < 60 µM strictly for this molecule: O=c1[nH]c2ccc(Cl)cc2n1S(=O)(=O)Cc1ccccc1Cl
### Response condition met

### Prompt Dear colleague, could you confirm whether IC50 of O=c1[nH]c2ccc(Cl)cc2n1S(=O)(=O)CCc1ccccc1Cl falls below 60 µM? Thanks.
### Response condition not met

### Prompt Check if IC50 falls below 60 µM for O=c1[nH]c2ccc(Cl)cc2n1S(=O)(=O)Cc1ccc(Cl)cc1 .
### Response condition not met

### Prompt Please let me know if O=c1[nH]c2ccc(Cl)cc2n1S(=O)(=O)Cc1cccc(Cl)c1 shows IC50 below 60 µM.
### Response condition not met

### Prompt Check if IC50 falls below 60 µM for O=c1[nH]c2ccc(Cl)cc2n1S(=O)(=O)Cc1ccccc1 .
### Response condition not met

### Prompt In plain terms, does O=c1[nH]c2ccc(Cl)cc2n1S(=O)(=O)CCc1ccccc1 come in under 60 µM for IC50?
### Response condition not met

### Prompt Is 60 µM strictly greater than the molecule's reported IC50? molecule: O=c1[nH]c2ccc(Cl)cc2n1S(=O)(=O)CCc1cccc(Cl)c1
### Response condition not met

### Prompt Consider Cc1ccc(CCS(=O)(=O)n2c(=O)[nH]c3ccc(Cl)cc32)cc1 . Does its IC50 lie strictly below 60 µM?
### Response condition not met

### Prompt Here's an entry: Cc1ccccc1CS(=O)(=O)n1c(=O)[nH]c2ccc(Cl)cc21 . Is its IC50 below 60 µM?
### Response condition not met

### Prompt Lab log: compare recorded IC50 with 60 µM; is it strictly lower for Cc1ccccc1CCS(=O)(=O)n1c(=O)[nH]c2ccc(Cl)cc21 ?
### Response condition met

### Prompt IC50 strictly < 60 µM for this molecule? O=c1[nH]c2ccc(Cl)cc2n1S(=O)(=O)CCc1ccc(Cl)cc1
### Response condition not met

====

biological target: Human immunodeficiency virus type 1 reverse transcriptase (Human immunodeficiency virus 1, UniProt Q72547, Y188L); test: Inhibition of HIV-1 reverse transcriptase Y188L mutant assessed as reduction in dTTP incorporation using poly(rA)/oligo(dT)16 as template/primer after 40 mins by PicoGreen dye based spectrofluorometric analysis
pIC50: −log10 of the molar value.
QUANTITY_KIND: pIC50

### Prompt Return pIC50 for the following molecule: O=c1[nH]c2ccc(Cl)cc2n1S(=O)(=O)CCc1ccc(Cl)cc1
### Response 3.64

### Prompt In one line, give reported pIC50 of the entry Cc1ccccc1CS(=O)(=O)n1c(=O)[nH]c2ccc(Cl)cc21 .
### Response < 3.45

### Prompt Give the reported pIC50 for this molecule. O=c1[nH]c2ccc(Cl)cc2n1S(=O)(=O)Cc1ccccc1Cl
### Response < 3.47
